The origin of these recorded values is ChEMBL document CHEMBL6153150.

Some compounds, each annotated with its measured IC50.
Tested on: A549
ASSAY_COMMENT: Antiproliferative activity against human A549 cells assessed as cell viability inhibition rate incubated for 72 hr by MTT assay
Format: functional, cell-based
MEASUREMENT_PARAMETERS: A549, 72 h
Number in nM, nothing else.

Request - read-out IC50 | tested on A549 | compound CC(C)c1cc(C(=O)N2C[C@@H](c3ccccc3)C[C@@H]2C(=O)NCCc2ccccc2)c(O)cc1O
45

Thanks! And CC(C)c1cc(C(=O)N2C[C@@H](c3ccccc3)C[C@@H]2C(=O)NCc2ccccc2)c(O)cc1O ?
39

Thanks! And COc1ccc(CNC(=O)[C@H]2C[C@H](c3ccccc3)CN2C(=O)c2cc(C(C)C)c(O)cc2O)cc1 ?
103

Continuing:
Request - read-out IC50 | tested on A549 | compound COc1ccc(CNC(=O)[C@H]2C[C@H](c3ccccc3)CN2C(=O)c2cc(C3CC3)c(O)cc2O)cc1
113
